- Tested on: Staphylococcus aureus 503
attribute.measured: MIC (µg/mL)

molecule=CON=C1CN(c2c(F)c(N)c3c(=O)c(C(=O)O)cn(C4CC4)c3c2F)CC12CN(C)C2 unit_descriptor=µg/mL readout_number=0.004
molecule="O=C(O)c1cn(C2CC2)c2cc(N3CCNCC3)c(F)cc2c1=O [Ciprofloxacin, ciprofloxacin, reference compound]" unit_descriptor=µg/mL readout_number=0.391
molecule=CON=C1CN(c2nc3c(cc2F)c(=O)c(C(=O)O)cn3-c2ccc(F)cc2F)CC12CNC2.CS(=O)(=O)O unit_descriptor=µg/mL readout_number=0.025
molecule=CON=C1CN(c2nc3c(cc2F)c(=O)c(C(=O)O)cn3C2CC2)CC12CNC2.CS(=O)(=O)O unit_descriptor=µg/mL readout_number=0.025
molecule="C[C@@H]1CN(c2c(F)c(N)c3c(=O)c(C(=O)O)cn(C4CC4)c3c2F)C[C@H](C)N1 [Sparfloxacin, sparfloxacin, reference compound]" unit_descriptor=µg/mL readout_number=0.049

====

Examples of compounds with documented MIC follow.
- System: Staphylococcus aureus 88E
- test: In vitro antibacterial activity against resistant strains (MIC)
- Format: cell-based
- measurement.context: resistant strain Staphylococcus aureus 88E; 2-fold agar dilution; methicillin resistant strains 48 hours at 30° C.; read-out: minimum inhibitory concentration (MIC)
- Method: 10^7 cfu/ml of bacteria were inoculated and cultured for 18 hours at 37° C. and then the antibacterial activities were measured. For the methicillin resistant strains the activities were measured after 48 hours of cultivation at 30° C. Hoechst Standard strains were used for the testings.
attribute.measured: MIC (µg/mL)

compound="CON=C1CN(c2nc3c(cc2F)c(=O)c(C(=O)O)cn3C2CC2)CC12CNC2.CS(=O)(=O)O [Example 1]" readout_number=0.049
compound="CON=C1CN(c2c(F)c(N)c3c(=O)c(C(=O)O)cn(C4CC4)c3c2F)CC12CN(C)C2 [Example 11]" readout_number=0.007
compound="C[C@@H]1CN(c2c(F)c(N)c3c(=O)c(C(=O)O)cn(C4CC4)c3c2F)C[C@H](C)N1 [Sparfloxacin, sparfloxacin, reference compound]" readout_number=0.098
compound="CCON=C1CN(c2c(F)c(N)c3c(=O)c(C(=O)O)cn(C4CC4)c3c2F)CC12CNC2.CS(=O)(=O)O [Example 9]" readout_number=0.007
compound="O=C(O)c1cn(C2CC2)c2cc(N3CCNCC3)c(F)cc2c1=O [Ciprofloxacin, ciprofloxacin, reference compound]" readout_number=0.781

====

Examples of molecules with documented MIC follow.
- Test system: Pseudomonas aeruginosa 9027
- test: In vitro antibacterial activity (MIC), agar dilution
- Format: cell-based
- measurement.context: 2-fold agar dilution, Muller-Hinton agar, 18 hours at 37° C., read-out: minimum inhibitory concentration (MIC)
attribute.measured: MIC

smiles=CON=C1CN(c2c(F)cc3c(=O)c(C(=O)O)cn(C4CC4)c3c2F)CC12CNC2 attribute_measured=MIC result="1.56 µg/mL"
smiles=CON=C1CN(c2nc3c(cc2F)c(=O)c(C(=O)O)cn3C2CC2)CC12CN(C)C2 attribute_measured=MIC result="0.781 µg/mL"
smiles=CCON=C1CN(c2nc3c(cc2F)c(=O)c(C(=O)O)cn3C2CC2)CC12CNC2.CS(=O)(=O)O attribute_measured=MIC result="1.56 µg/mL"
smiles=CON=C1CN(c2cc3c(cc2F)c(=O)c(C(=O)O)cn3C2CC2)CC12CNC2.CS(=O)(=O)O attribute_measured=MIC result="0.781 µg/mL"

====

- System: Pseudomonas aeruginosa 1771M
- test: In vitro antibacterial activity (MIC), agar dilution
- Format: cell-based
- measurement.context: Pseudomonas aeruginosa, 1771M, 18 h, read-out: minimum inhibitory concentration (MIC)
attribute.measured: MIC (µg/mL)

molecule=CON=C1CN(c2nc3c(cc2F)c(=O)c(C(=O)O)cn3C2CC2)CC12CNC2.CS(=O)(=O)O unit_descriptor=µg/mL readout_number=0.391
molecule=CON=C1CN(c2c(F)c(N)c3c(=O)c(C(=O)O)cn(C4CC4)c3c2F)CC12CN(C)C2 unit_descriptor=µg/mL readout_number=0.391
molecule=CON=C1CN(c2cc3c(cc2F)c(=O)c(C(=O)O)cn3-c2ccc(F)cc2F)CC12CNC2.CS(=O)(=O)O.CS(=O)(=O)O unit_descriptor=µg/mL readout_number=1.56
molecule=CON=C1CN(c2nc3c(cc2F)c(=O)c(C(=O)O)cn3-c2ccc(F)cc2F)CC12CNC2.CS(=O)(=O)O unit_descriptor=µg/mL readout_number=0.781
molecule="C[C@@H]1CN(c2c(F)c(N)c3c(=O)c(C(=O)O)cn(C4CC4)c3c2F)C[C@H](C)N1 [Sparfloxacin, sparfloxacin, reference compound]" unit_descriptor=µg/mL readout_number=0.195
molecule=CON=C1CN(c2cc3c(cc2F)c(=O)c(C(=O)O)cn3C2CC2)CC12CNC2.CS(=O)(=O)O unit_descriptor=µg/mL readout_number=0.391
molecule=CCON=C1CN(c2c(F)c(N)c3c(=O)c(C(=O)O)cn(C4CC4)c3c2F)CC12CNC2.CS(=O)(=O)O unit_descriptor=µg/mL readout_number=0.391
molecule=CON=C1CN(c2c(F)cc3c(=O)c(C(=O)O)cn(C4CC4)c3c2F)CC12CNC2 unit_descriptor=µg/mL readout_number=0.781
molecule=CON=C1CN(c2c(F)cc3c(=O)c(C(=O)O)cn(C4CC4)c3c2Cl)CC12CNC2 unit_descriptor=µg/mL readout_number=0.391
molecule="O=C(O)c1cn(C2CC2)c2cc(N3CCNCC3)c(F)cc2c1=O [Ciprofloxacin, ciprofloxacin, reference compound]" unit_descriptor=µg/mL readout_number=0.049
molecule=CON=C1CN(c2nc3c(cc2F)c(=O)c(C(=O)O)cn3C2CC2)CC12CN(C)C2 unit_descriptor=µg/mL readout_number=0.781
molecule=CCON=C1CN(c2nc3c(cc2F)c(=O)c(C(=O)O)cn3C2CC2)CC12CNC2.CS(=O)(=O)O unit_descriptor=µg/mL readout_number=0.781

====

Consider compounds characterized by their MIC with Salmonella typhimurium.
attribute.measured: MIC (µg/mL)

smiles=CCON=C1CN(c2c(F)c(N)c3c(=O)c(C(=O)O)cn(C4CC4)c3c2F)CC12CNC2.CS(=O)(=O)O readout_number=0.007
smiles=CON=C1CN(c2c(F)cc3c(=O)c(C(=O)O)cn(C4CC4)c3c2Cl)CC12CNC2 readout_number=0.025
smiles=CCON=C1CN(c2nc3c(cc2F)c(=O)c(C(=O)O)cn3C2CC2)CC12CNC2.CS(=O)(=O)O readout_number=0.013
smiles=CON=C1CN(c2cc3c(cc2F)c(=O)c(C(=O)O)cn3C2CC2)CC12CNC2.CS(=O)(=O)O readout_number=0.025
smiles=CON=C1CN(c2nc3c(cc2F)c(=O)c(C(=O)O)cn3C2CC2)CC12CNC2.CS(=O)(=O)O readout_number=0.013

====

- Test system: Salmonella typhimurium
Examples of compounds with documented MIC follow.
attribute.measured: MIC (µg/mL)

compound="O=C(O)c1cn(C2CC2)c2cc(N3CCNCC3)c(F)cc2c1=O [Ciprofloxacin, ciprofloxacin, reference compound]" unit_descriptor=µg/mL readout_number=0.007
compound=CON=C1CN(c2c(F)cc3c(=O)c(C(=O)O)cn(C4CC4)c3c2F)CC12CNC2 unit_descriptor=µg/mL readout_number=0.025
compound=CON=C1CN(c2c(F)c(N)c3c(=O)c(C(=O)O)cn(C4CC4)c3c2F)CC12CN(C)C2 unit_descriptor=µg/mL readout_number=0.007
compound="C[C@@H]1CN(c2c(F)c(N)c3c(=O)c(C(=O)O)cn(C4CC4)c3c2F)C[C@H](C)N1 [Sparfloxacin, sparfloxacin, reference compound]" unit_descriptor=µg/mL readout_number=0.007
compound=CON=C1CN(c2nc3c(cc2F)c(=O)c(C(=O)O)cn3-c2ccc(F)cc2F)CC12CNC2.CS(=O)(=O)O unit_descriptor=µg/mL readout_number=0.049
compound=CON=C1CN(c2nc3c(cc2F)c(=O)c(C(=O)O)cn3C2CC2)CC12CN(C)C2 unit_descriptor=µg/mL readout_number=0.049
compound=CON=C1CN(c2cc3c(cc2F)c(=O)c(C(=O)O)cn3-c2ccc(F)cc2F)CC12CNC2.CS(=O)(=O)O.CS(=O)(=O)O unit_descriptor=µg/mL readout_number=0.049

====

- Test system: Staphylococcus aureus 692E
- test: In vitro antibacterial activity against resistant strains (MIC)
- Type: cell-based
- measurement.context: resistant strain Staphylococcus aureus 692E; 2-fold agar dilution; methicillin resistant strains 48 hours at 30° C.; read-out: minimum inhibitory concentration (MIC)
- Procedure: 10^7 cfu/ml of bacteria were inoculated and cultured for 18 hours at 37° C. and then the antibacterial activities were measured. For the methicillin resistant strains the activities were measured after 48 hours of cultivation at 30° C. Hoechst Standard strains were used for the testings.
Examples of compounds with documented MIC follow.
attribute.measured: MIC (µg/mL)

compound="O=C(O)c1cn(C2CC2)c2cc(N3CCNCC3)c(F)cc2c1=O [Ciprofloxacin, ciprofloxacin, reference compound]" system_under_test="Staphylococcus aureus 692E" unit_descriptor=µg/mL readout_number=0.391
compound=CCON=C1CN(c2c(F)c(N)c3c(=O)c(C(=O)O)cn(C4CC4)c3c2F)CC12CNC2.CS(=O)(=O)O system_under_test="Staphylococcus aureus 692E" unit_descriptor=µg/mL readout_number=0.007
compound=CON=C1CN(c2nc3c(cc2F)c(=O)c(C(=O)O)cn3C2CC2)CC12CNC2.CS(=O)(=O)O system_under_test="Staphylococcus aureus 692E" unit_descriptor=µg/mL readout_number=0.025
compound=CON=C1CN(c2c(F)c(N)c3c(=O)c(C(=O)O)cn(C4CC4)c3c2F)CC12CN(C)C2 system_under_test="Staphylococcus aureus 692E" unit_descriptor=µg/mL readout_number=0.007
compound="C[C@@H]1CN(c2c(F)c(N)c3c(=O)c(C(=O)O)cn(C4CC4)c3c2F)C[C@H](C)N1 [Sparfloxacin, sparfloxacin, reference compound]" system_under_test="Staphylococcus aureus 692E" unit_descriptor=µg/mL readout_number=0.049

The reported numbers originate from patent US6552196B2.
